# measurement protocol: cell viability in Huh7 cells, primary screen, cytotoxicity control for HCV replication inhibitor project, CellTiter-Glo luminescence, basal, 48 h (AID 1143);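 further: Huh7 hepatoma cells carrying a hepatitis C replication reporter with no stimulus; test concentration not given here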
# recorded conditions: Huh7 HCV replicon, higher = more signal, called active from +8 up or from −8 down
Class 1.0: z-score at least -1. Class 0.0: z-score below -1.

compound | class assignment
CC(=O)n1cc(C(O)C2C=CC3C(=O)N(Cc4ccccc4)C(=O)C3N2n2cnnc2)c2ccccc21 (stereo unspecified) | 1.0
COCCOC(=O)N1C(=O)[C@@]2(c3cc(C#CC4=CCCCC4)ccc31)[C@H](C(=O)N1CCN(c3ncccn3)CC1)[C@H]1C(=O)O[C@H](c3ccccc3)[C@H](c3ccccc3)N1[C@@H]2c1ccc(O)cc1 | 0.0
O=C(CS)NCCCCCCNC(=O)[C@@H]1C[C@@H]2C(=O)N3CCC[C@H]3C(=O)N2[C@@H]1c1cccc(OCCO)c1 | 1.0
COC(=O)c1c(CC[C@@H](CO)NC(=O)N[C@H](Cn2cc(-c3ccccc3C)nn2)C(C)C)oc(C(C)=O)c1C(=O)OC | 0.0
CCOC(=O)[C@H]1C/C=C/C[C@H](C(=O)OCC)C(=O)O[C@H]2[C@@H](OC)O[C@H](CO)[C@@H](OC(=O)CCc3ccccc3)[C@@H]2OC1=O | 0.0
COCCOC(=O)N1C(=O)[C@@]2(c3cc(C#CC4(O)CCCCCC4)ccc31)[C@H](C(N)=O)[C@H]1C(=O)O[C@H](c3ccccc3)[C@H](c3ccccc3)N1[C@@H]2c1ccccc1OCCO | 0.0
